system: DNA; experiment: Binding affinity to calf […] DNA assessed as thermal stability in cacodylate buffer at 12 uM; format: nucleic-acid assay
ΔTm by entry:
readout.kind: ΔTm (°C)

[[record]]
molecule_smiles = "N=C(N)NCc1cccs1"
target_or_system = "DNA"
measurement = 0

[[record]]
molecule_smiles = "NCc1ccc2c(c1)Cc1ccccc1-2"
target_or_system = "DNA"
measurement = 0.1

[[record]]
molecule_smiles = "NCc1cccs1"
target_or_system = "DNA"
measurement = 0

[[record]]
molecule_smiles = "N=C(N)NCCCCNCc1c2ccccc2cc2ccccc12"
target_or_system = "DNA"
measurement = 28.1

[[record]]
molecule_smiles = "NCCCCNCc1ccc2ccc3cccc4ccc1c2c34"
target_or_system = "DNA"
measurement = 32.1

[[record]]
molecule_smiles = "CN1CCN(c2ccc3[nH]c(-c4ccc5[nH]c(-c6ccc(O)cc6)nc5c4)nc3c2)CC1"
target_or_system = "DNA"
measurement = 25.1

[[record]]
molecule_smiles = "NCc1ccccc1"
target_or_system = "DNA"
measurement = 0.1

[[record]]
molecule_smiles = "N=C(N)NCc1ccccc1"
target_or_system = "DNA"
measurement = 0.1

[[record]]
molecule_smiles = "N=C(N)NCc1c2ccccc2cc2ccccc12"
target_or_system = "DNA"
measurement = 15

[[record]]
molecule_smiles = "NCc1c2ccccc2cc2ccccc12"
target_or_system = "DNA"
measurement = 9

[[record]]
molecule_smiles = "NCCCCNCc1c2ccccc2cc2ccccc12"
target_or_system = "DNA"
measurement = 26

[[record]]
molecule_smiles = "N=C(N)NCc1ccc2c(c1)Cc1ccccc1-2"
target_or_system = "DNA"
measurement = 1

[[record]]
molecule_smiles = "NCc1ccc2ccc3cccc4ccc1c2c34"
target_or_system = "DNA"
measurement = 15

[[record]]
molecule_smiles = "CCBr"
target_or_system = "DNA"
measurement = 21

[[record]]
molecule_smiles = "N=C(N)NCCCNCCCCNCCCNCc1ccc2ccc3cccc4ccc1c2c34"
target_or_system = "DNA"
measurement = 39.1

[[record]]
molecule_smiles = "N=C(N)NCCCCCCNCc1ccc2ccc3cccc4ccc1c2c34"
target_or_system = "DNA"
measurement = 34.1

[[record]]
molecule_smiles = "N=C(N)NCCCCNCc1ccc2ccc3cccc4ccc1c2c34"
target_or_system = "DNA"
measurement = 34.2

[[record]]
molecule_smiles = "N=C(N)NCc1ccc2ccc3cccc4ccc1c2c34"
target_or_system = "DNA"
measurement = 19


====

target: Caspase-3 (Homo sapiens); experiment: Increase in caspase 3 activation in human SKBR3 cells at 20 uM after 24 hrs; assay type: cell-based; conditions: SK-BR-3
Active and inactive are the calls of the source. The calls are words filed in the database; no cut-off is given here.
Labels: active, inactive

[[record]]
molecule_smiles = "N=C(N)NCCCNCCCCNCCCNCc1ccc2ccc3cccc4ccc1c2c34"
category = "inactive"

[[record]]
molecule_smiles = "N=C(N)NCc1c2ccccc2cc2ccccc12"
category = "active"

[[record]]
molecule_smiles = "N=C(N)NCCCCNCc1ccc2ccc3cccc4ccc1c2c34"
category = "active"

[[record]]
molecule_smiles = "NCc1c2ccccc2cc2ccccc12"
category = "inactive"

[[record]]
molecule_smiles = "N=C(N)NCc1ccccc1"
category = "inactive"

[[record]]
molecule_smiles = "NCc1ccccc1"
category = "inactive"

[[record]]
molecule_smiles = "NCc1ccc2c(c1)Cc1ccccc1-2"
category = "inactive"


====

tested on: SK-BR-3; experiment: Antiproliferative activity against human SKBR3 cells after 72 hrs; assay type: functional, cell-based; conditions: SK-BR-3, 72 h
pIC50: −log10 of the molar value.
Lab note: anything with pIC50 at or over 5 counts as Yes; the rest go in No.

[[record]]
molecule_smiles = "NCCCCNCc1ccc2ccc3cccc4ccc1c2c34"
category = "Yes"

[[record]]
molecule_smiles = "N=C(N)NCCCCCCNCc1ccc2ccc3cccc4ccc1c2c34"
category = "Yes"

[[record]]
molecule_smiles = "N=C(N)NCCCNCCCCNCCCNCc1ccc2ccc3cccc4ccc1c2c34"
category = "No"

[[record]]
molecule_smiles = "NCc1cccs1"
category = "No"

[[record]]
molecule_smiles = "NCc1ccc2c(c1)Cc1ccccc1-2"
category = "No"


====

biological target: Caspase-7 (Homo sapiens); assay: Increase in caspase 7 activation in human SKBR3 cells at 20 uM after 24 hrs; type: cell-based; conditions: SK-BR-3
Calls of active or inactive are those of the source. The calls are words filed in the database; no cut-off is given here.
Classes used: t (active), f (inactive)

[[record]]
compound = "NCc1c2ccccc2cc2ccccc12"
target_or_system = "Caspase-7 (Homo sapiens)"
category = "f"

[[record]]
compound = "N=C(N)NCCCCNCc1ccc2ccc3cccc4ccc1c2c34"
target_or_system = "Caspase-7 (Homo sapiens)"
category = "t"

[[record]]
compound = "NCc1ccccc1 [BENZYLAMINE]"
target_or_system = "Caspase-7 (Homo sapiens)"
category = "f"

[[record]]
compound = "NCc1ccc2c(c1)Cc1ccccc1-2"
target_or_system = "Caspase-7 (Homo sapiens)"
category = "f"

[[record]]
compound = "N=C(N)NCc1c2ccccc2cc2ccccc12"
target_or_system = "Caspase-7 (Homo sapiens)"
category = "t"

[[record]]
compound = "N=C(N)NCCCNCCCCNCCCNCc1ccc2ccc3cccc4ccc1c2c34"
target_or_system = "Caspase-7 (Homo sapiens)"
category = "f"

[[record]]
compound = "N=C(N)NCc1ccccc1"
target_or_system = "Caspase-7 (Homo sapiens)"
category = "f"


====

Collected ΔTm values appear next to each entry.
test system: DNA; assay: Binding affinity to calf […] DNA assessed as thermal stability in cacodylate buffer containing 0.1 M NaCl at 12 uM; assay type: nucleic-acid assay
readout.kind: ΔTm (°C)

[[record]]
molecule_smiles = "NCc1ccc2ccc3cccc4ccc1c2c34"
target_or_system = "DNA"
readout_kind = "ΔTm"
measurement = 3

[[record]]
molecule_smiles = "NCCCCNCc1c2ccccc2cc2ccccc12"
target_or_system = "DNA"
readout_kind = "ΔTm"
measurement = 8

[[record]]
molecule_smiles = "N=C(N)NCCCCCCNCc1ccc2ccc3cccc4ccc1c2c34"
target_or_system = "DNA"
readout_kind = "ΔTm"
measurement = 12

[[record]]
molecule_smiles = "N=C(N)NCc1c2ccccc2cc2ccccc12"
target_or_system = "DNA"
readout_kind = "ΔTm"
measurement = 4

[[record]]
molecule_smiles = "NCc1ccc2c(c1)Cc1ccccc1-2"
target_or_system = "DNA"
readout_kind = "ΔTm"
measurement = 0

[[record]]
molecule_smiles = "CN1CCN(c2ccc3[nH]c(-c4ccc5[nH]c(-c6ccc(O)cc6)nc5c4)nc3c2)CC1"
target_or_system = "DNA"
readout_kind = "ΔTm"
measurement = 12

[[record]]
molecule_smiles = "NCc1ccccc1"
target_or_system = "DNA"
readout_kind = "ΔTm"
measurement = 0

[[record]]
molecule_smiles = "N=C(N)NCCCNCCCCNCCCNCc1ccc2ccc3cccc4ccc1c2c34"
target_or_system = "DNA"
readout_kind = "ΔTm"
measurement = 16

[[record]]
molecule_smiles = "N=C(N)NCc1ccc2c(c1)Cc1ccccc1-2"
target_or_system = "DNA"
readout_kind = "ΔTm"
measurement = 0


====

test system: DNA; experiment: Binding affinity to calf thymus DNA assessed as thermal stability in BPE buffer at 2 uM; type: nucleic-acid assay; conditions: Bos taurus
readout.kind: ΔTm (°C)

[[record]]
molecule_smiles = "NCc1ccc2ccc3cccc4ccc1c2c34"
measurement = 5

[[record]]
molecule_smiles = "N=C(N)NCc1ccccc1"
measurement = 0.1

[[record]]
molecule_smiles = "NCCCCNCc1c2ccccc2cc2ccccc12"
measurement = 13.1


====

system: SK-BR-3; assay: Antiproliferative activity against human SKBR3 cells after 72 hrs; type: functional, cell-based; conditions: SK-BR-3, 72 h
pIC50: −log10 of the molar value.
readout.kind: pIC50

[[record]]
compound = "N=C(N)NCc1cccs1"
target_or_system = "SK-BR-3"
readout_kind = "pIC50"
measurement = "< 4.40"

[[record]]
compound = "NCc1ccccc1 [BENZYLAMINE]"
target_or_system = "SK-BR-3"
readout_kind = "pIC50"
measurement = "< 4.40"

[[record]]
compound = "N=C(N)NCc1ccccc1"
target_or_system = "SK-BR-3"
readout_kind = "pIC50"
measurement = "< 4.40"


Source: ChEMBL document CHEMBL1138355
